Here the recorded EC50 is given for each entry.
- System: Human immunodeficiency virus 1
- assayText: Antiviral activity against HIV1 harbouring T332S/V362I/prR41G mutant infected in human MT2 cells measured after 4 to 5 days by dual-luciferase reporter assay
- Format: functional, organism-based
- conditionDescription: Human immunodeficiency virus 1, MT2
Kindly answer with a numeric value in nM, unit omitted.

Example molecules with recorded EC50:
C=C(C)[C@@H]1CC[C@]2(NCCN3CCS(=O)(=O)CC3)CC[C@]3(C)[C@H](CC[C@@H]4[C@@]5(C)CC=C(C6=CCC(C(=O)O)(c7ccccc7)CC6)C(C)(C)[C@@H]5CC[C@]43C)[C@@H]12 (some centres undefined); 31.2
C=C(C)[C@@H]1CC[C@]2(NCCN3CCC(S(C)(=O)=O)CC3)CC[C@]3(C)[C@H](CC[C@@H]4[C@@]5(C)CC=C(C6=CCC(CC(F)F)(C(=O)O)CC6)C(C)(C)[C@@H]5CC[C@]43C)[C@@H]12 (some centres undefined); 4
C=C(C)[C@@H]1CC[C@]2(NCCN3CCS(=O)(=O)CC3)CC[C@]3(C)[C@H](CC[C@@H]4[C@@]5(C)CC=C(C6=CCC(OC)(C(=O)O)CC6)C(C)(C)[C@@H]5CC[C@]43C)[C@@H]12 (some centres undefined); 21.8

I'm curious: which EC50 was measured for C=C(C)[C@@H]1CC[C@]2(NCCN3CCS(=O)(=O)CC3)CC[C@]3(C)[C@H](CC[C@@H]4[C@@]5(C)CC=C(C6=CCC(CCO)(C(=O)O)CC6)C(C)(C)[C@@H]5CC[C@]43C)[C@@H]12 (some centres undefined) tested on Human immunodeficiency virus 1?
15.9

----------
- assayText: Oral bioavailability in overnight fasted mouse using spray-dried dispersion at 5 mg/kg
- Format: ADME, organism-based
- conditionDescription: in vivo
valueType: bioavailability (%)
Kindly answer with a numeric value in %, unit omitted.

Reported bioavailability, molecule C=C(C)[C@@H]1CC[C@]2(NCCN3CCS(=O)(=O)CC3)CC[C@]3(C)[C@H](CC[C@@H]4[C@@]5(C)CC=C(C6=CC[C@@](CF)(C(=O)O)CC6)C(C)(C)[C@@H]5CC[C@]43C)[C@@H]12 : ____
91

----------
- assayText: AUC in rat at 5 mg/kg, po
- Assay type: ADME, organism-based
- Set-up: dose 5 mg/kg, route po
- conditionDescription: in vivo, read-out: AUC
valueType: AUC (µM·h)
Kindly answer with a numeric value in µM·h, unit omitted.

C=C(C)[C@@H]1CC[C@]2(NCCN3CCS(=O)(=O)CC3)CC[C@]3(C)[C@H](CC[C@@H]4[C@@]5(C)CC=C(C6=CCC(C(=O)O)CC6)C(C)(C)[C@@H]5CC[C@]43C)[C@@H]12 (some centres undefined); 12.9

Reported AUC, compound C=C(C)[C@@H]1CC[C@]2(NCCN3CCC(S(C)(=O)=O)CC3)CC[C@]3(C)[C@H](CC[C@@H]4[C@@]5(C)CC=C(C6=CCC(C(=O)O)(C(F)F)CC6)C(C)(C)[C@@H]5CC[C@]43C)[C@@H]12 (some centres undefined) : ____
17.9

Further, for C=C(C)[C@@H]1CC[C@]2(NCCN3CCC(S(C)(=O)=O)CC3)CC[C@]3(C)[C@H](CC[C@@H]4[C@@]5(C)CC=C(C6=CCC(CO)(C(=O)O)CC6)C(C)(C)[C@@H]5CC[C@]43C)[C@@H]12 (some centres undefined) ?
2.37

Further, for C=C(C)[C@@H]1CC[C@]2(NCCN3CCC(S(C)(=O)=O)CC3)CC[C@]3(C)[C@H](CC[C@@H]4[C@@]5(C)CC=C(C6=CC[C@](CF)(C(=O)O)CC6)C(C)(C)[C@@H]5CC[C@]43C)[C@@H]12 ?
24.1

----------
Here the recorded bioavailability is given for each entry.
- assayText: Oral bioavailability in overnight fasted cynomolgus monkey using spray-dried dispersion at 2 mg/kg
- Type: ADME, organism-based, Macaca fascicularis
- conditionDescription: in vivo
Please don't drop the unit; write it after the number.

C=C(C)[C@@H]1CC[C@]2(NCCN3CCS(=O)(=O)CC3)CC[C@]3(C)[C@H](CC[C@@H]4[C@@]5(C)CC=C(c6ccc(C(=O)O)cc6)C(C)(C)[C@@H]5CC[C@]43C)[C@@H]12; 4%

// next entry
Reported bioavailability, compound C=C(C)[C@@H]1CC[C@]2(NCCN3CCS(=O)(=O)CC3)CC[C@]3(C)[C@H](CC[C@@H]4[C@@]5(C)CC=C(C6=CC[C@@](CF)(C(=O)O)CC6)C(C)(C)[C@@H]5CC[C@]43C)[C@@H]12 : ____
28%

----------
Here the recorded pEC50 is given for each entry.
- System: Human immunodeficiency virus 1
- assayText: Antiviral activity against HIV1 wild type NL (4 to 3) infected in human MT2 cells measured after 4 to 5 days by dual-luciferase reporter assay
- Assay type: functional, organism-based
- conditionDescription: Human immunodeficiency virus 1, MT2
Remember the convention: pEC50 equals -log10 of concentration in molar.

C=C(C)[C@@H]1CC[C@]2(NCCN3CCC(S(C)(=O)=O)CC3)CC[C@]3(C)[C@H](CC[C@@H]4[C@@]5(C)CC=C(C6=CCC(CCCO)(C(=O)O)CC6)C(C)(C)[C@@H]5CC[C@]43C)[C@@H]12 (some centres not stated); 8.59

I'm curious: which pEC50 was measured for C=C(C)[C@@H]1CC[C@]2(NCCN3CCS(=O)(=O)CC3)CC[C@]3(C)[C@H](CC[C@@H]4[C@@]5(C)CC=C(C6=CCC(C(=O)O)(c7ccccc7)CC6)C(C)(C)[C@@H]5CC[C@]43C)[C@@H]12 (some centres not stated) tested on Human immunodeficiency virus 1?
8.11

Further, for C=C(C)[C@@H]1CC[C@]2(NCCN3CCC(S(C)(=O)=O)CC3)CC[C@]3(C)[C@H](CC[C@@H]4[C@@]5(C)CC=C(C6=CCC(CF)(C(=O)O)CC6)C(C)(C)[C@@H]5CC[C@]43C)[C@@H]12 (some centres not stated) ?
8.77

----------
- assayText: Half life in overnight fasted Beagle dog at 1 mg/kg, iv
- Type: ADME, organism-based, Canis lupus familiaris
- conditionDescription: in vivo
valueType: half-life (h)
Kindly answer with a numeric value in h, unit omitted.

C=C(C)[C@@H]1CC[C@]2(NCCN3CCS(=O)(=O)CC3)CC[C@]3(C)[C@H](CC[C@@H]4[C@@]5(C)CC=C(c6ccc(C(=O)O)cc6)C(C)(C)[C@@H]5CC[C@]43C)[C@@H]12; 31.7

Reported half-life, compound C=C(C)[C@@H]1CC[C@]2(NCCN3CCS(=O)(=O)CC3)CC[C@]3(C)[C@H](CC[C@@H]4[C@@]5(C)CC=C(C6=CC[C@@](CF)(C(=O)O)CC6)C(C)(C)[C@@H]5CC[C@]43C)[C@@H]12 : ____
18.7

----------
- Test system: Human immunodeficiency virus 1
- assayText: Antiviral activity against HIV1 harbouring T332S/V362I/prR41G mutant infected in human MT2 cells measured after 4 to 5 days by dual-luciferase reporter assay
- Assay type: functional, organism-based
- conditionDescription: Human immunodeficiency virus 1, MT2
Here the recorded EC50 is given for each entry.
Please don't drop the unit; write it after the number.

C=C(C)[C@@H]1CC[C@]2(NCCN3CCS(=O)(=O)CC3)CC[C@]3(C)[C@H](CC[C@@H]4[C@@]5(C)CC=C(C6=CCC(CO)(C(=O)O)CC6)C(C)(C)[C@@H]5CC[C@]43C)[C@@H]12 (some centres not stated); 25.6 nM

Reported EC50, compound C=C(C)[C@@H]1CC[C@]2(NCCN3CCC(S(C)(=O)=O)CC3)CC[C@]3(C)[C@H](CC[C@@H]4[C@@]5(C)CC=C(C6=CCC(C(=O)O)(C(F)F)CC6)C(C)(C)[C@@H]5CC[C@]43C)[C@@H]12 (some centres not stated) : ____
6.6 nM

----------
- Test system: Human immunodeficiency virus 1
- assayText: Antiviral activity against HIV1 wild type NL (4 to 3) infected in human MT2 cells measured after 4 to 5 days in presence of human serum by dual-luciferase reporter assay
- Type: functional, organism-based
- conditionDescription: Human immunodeficiency virus 1, MT2
Here the recorded EC50 is given for each entry.
Kindly answer with a numeric value in nM, unit omitted.

Example compounds with recorded EC50:
C=C(C)[C@@H]1CC[C@]2(NCCN3CCC(S(C)(=O)=O)CC3)CC[C@]3(C)[C@H](CC[C@@H]4[C@@]5(C)CC=C(C6=CCC(CCCOC)(C(=O)O)CC6)C(C)(C)[C@@H]5CC[C@]43C)[C@@H]12 (some centres undefined); 19.3
C=C(C)[C@@H]1CC[C@]2(NCCN3CCS(=O)(=O)CC3)CC[C@]3(C)[C@H](CC[C@@H]4[C@@]5(C)CC=C(C6=CCC(CCO)(C(=O)O)CC6)C(C)(C)[C@@H]5CC[C@]43C)[C@@H]12 (some centres undefined); 85.8

Reported EC50, compound C=C(C)[C@@H]1CC[C@]2(NCCN3CCC(S(C)(=O)=O)CC3)CC[C@]3(C)[C@H](CC[C@@H]4[C@@]5(C)CC=C(C6=CC[C@](CF)(C(=O)O)CC6)C(C)(C)[C@@H]5CC[C@]43C)[C@@H]12 : ____
14.7

Further, for C=C(C)[C@@H]1CC[C@]2(NCCN3CCS(=O)(=O)CC3)CC[C@]3(C)[C@H](CC[C@@H]4[C@@]5(C)CC=C(C6=CCC(CC7CC7)(C(=O)O)CC6)C(C)(C)[C@@H]5CC[C@]43C)[C@@H]12 (some centres undefined) ?
48.5

Further, for C=C(C)[C@@H]1CC[C@]2(NCCN3CCS(=O)(=O)CC3)CC[C@]3(C)[C@H](CC[C@@H]4[C@@]5(C)CC=C(C6=CCC(OC(C)C)(C(=O)O)CC6)C(C)(C)[C@@H]5CC[C@]43C)[C@@H]12 (some centres undefined) ?
48.5

From: ChEMBL document CHEMBL5113515
